Below, each of the compounds is paired with its reported inhibition at 50 µM value.
# System: human IL-8
# experiment: Inhibition of IL-8 production by stimulated human peripheral blood leukocytes in vitro (ELISA)
# Format: cell-based
# condition: Homo sapiens, Leukocyte, PBL, LPS stimulation, compound 50 μM; read-out: Percentage of inhibition of IL-8 production
// return numeric value only (unit: %, not printed)

[[record]]
smilesnotation = "CC[C@H]1OC(=O)[C@H](C)[C@@H](OC(=O)CCN(C)CCO)[C@H](C)[C@@H](O[C@@H]2O[C@H](C)C[C@H](N(C)C)[C@H]2O)[C@](C)(OC)C[C@@H](C)C(=O)N[C@H](C)[C@@H](O)[C@]1(C)O"
measurementname = "inhibition at 50 µM"
measurement = 95

[[record]]
smilesnotation = "C=CC(=O)O[C@H]1[C@H](C)[C@@H](O[C@@H]2O[C@H](C)C[C@H](N(C)C)[C@H]2O)[C@](C)(OC)C[C@@H](C)C(=O)[C@H](C)[C@@H](O)[C@](C)(O)[C@@H](CC)OC(=O)[C@@H]1C"
measurementname = "inhibition at 50 µM"
measurement = 100

[[record]]
smilesnotation = "CC[C@H]1OC(=O)[C@H](C)[C@@H](OC(=O)CCN2CCN(CCN(CC)CC)CC2)[C@H](C)[C@@H](O[C@@H]2O[C@H](C)C[C@H](N(C)C)[C@H]2O)[C@](C)(OC)C[C@@H](C)C(=O)N[C@H](C)[C@@H](O)[C@]1(C)O"
measurementname = "inhibition at 50 µM"
measurement = 30

[[record]]
smilesnotation = "CC[C@H]1OC(=O)[C@H](C)[C@@H](OC(=O)CCN2CCCN(CCCN3CCCC3)CC2)[C@H](C)[C@@H](O[C@@H]2O[C@H](C)C[C@H](N(C)C)[C@H]2O)[C@](C)(OC)C[C@@H](C)C(=O)N[C@H](C)[C@@H](O)[C@]1(C)O"
measurementname = "inhibition at 50 µM"
measurement = 94

[[record]]
smilesnotation = "CC[C@H]1OC(=O)[C@H](C)[C@@H](OC(=O)CCN(CC)CC)[C@H](C)[C@@H](O[C@@H]2O[C@H](C)C[C@H](N(C)C)[C@H]2O)[C@](C)(OC)C[C@@H](C)C(=O)[C@H](C)[C@@H](O)[C@]1(C)O"
measurementname = "inhibition at 50 µM"
measurement = 95


Let us move to another entry and its inhibition at 50 µM.
**Query** Need inhibition at 50 µM of CC[C@H]1OC(=O)[C@H](C)[C@@H](OC(=O)CCN2CCN(CCN(C)C)CC2)[C@H](C)[C@@H](O[C@@H]2O[C@H](C)C[C@H](N(C)C)[C@H]2O)[C@](C)(OC)C[C@@H](C)C(=O)N[C@H](C)[C@@H](O)[C@]1(C)O , thanks.
**Result** 32

====

# Test system: human TNF-α
# experiment: Inhibition of TNF-α production by stimulated human peripheral blood leukocytes in vitro (ELISA)
# Format: cell-based
# condition: Homo sapiens, Leukocyte, PBL, LPS stimulation, compound 50 μM; read-out: Percentage of inhibition of TNF-α production
measurementName: inhibition at 50 µM

Some molecules with recorded inhibition at 50 µM:
[[record]]
molecule = "CC[C@H]1OC(=O)[C@H](C)[C@@H](OC(=O)CCN2CCN(CCN(CC)CC)CC2)[C@H](C)[C@@H](O[C@@H]2O[C@H](C)C[C@H](N(C)C)[C@H]2O)[C@](C)(OC)C[C@@H](C)C(=O)N[C@H](C)[C@@H](O)[C@]1(C)O"
measurement = "0%"

[[record]]
molecule = "CC[C@H]1OC(=O)[C@H](C)[C@@H](O[C@H]2C[C@@](C)(OC)[C@@H](O)[C@H](C)O2)[C@H](C)[C@@H](O[C@@H]2O[C@H](C)C[C@H](N(C)C)[C@H]2O)[C@](C)(OC)C[C@@H](C)C(=O)[C@H](C)[C@@H](O)[C@]1(C)O [clarithromycin, reference compound]"
measurement = "0%"

[[record]]
molecule = "CC[C@H]1OC(=O)[C@H](C)[C@@H](OC(=O)CCN(CC)CC)[C@H](C)[C@@H](O[C@@H]2O[C@H](C)C[C@H](N(C)C)[C@H]2O)[C@](C)(OC)C[C@@H](C)C(=O)[C@H](C)[C@@H](O)[C@]1(C)O"
measurement = "92%"


**Query** Item under review: CC[C@H]1OC(=O)[C@H](C)[C@@H](OC(=O)CCN(CC)CC)[C@H](C)[C@@H](O[C@@H]2O[C@H](C)C[C@H](N(C)C)C2O)[C@](C)(O)C[C@@H](C)CN(C)[C@H](C)[C@@H](O)[C@]1(C)O (stereo in doubt) . Reported inhibition at 50 µM?
**Result** 0%

**Query** And for CC[C@H]1OC(=O)[C@H](C)[C@@H](OC(=O)CCN(CC)CC)[C@H](C)[C@@H](O[C@@H]2O[C@H](C)C[C@H](NC)[C@@H]2O)[C@](C)(OC)C[C@@H](C)C(=O)N[C@H](C)[C@@H](O)[C@]1(C)O ?
**Result** 65%

**Query** Entry CC[C@H]1OC(=O)[C@H](C)[C@@H](OC(=O)CCN(C)CCO)[C@H](C)[C@@H](O[C@@H]2O[C@H](C)C[C@H](N(C)C)[C@H]2O)[C@](C)(OC)C[C@@H](C)C(=O)N[C@H](C)[C@@H](O)[C@]1(C)O please
**Result** 97%

Cited source: patent US7910559B2
